The measured values listed here are drawn from patent US20250152704A1.

target: T1, cynomolgus monkey FcRn (cynomolgus monkey, UniProt Q8SPV9 24-297; Q8SPW0 21-119, limits assumed); assay: SPR, pH 6
T1 construct: also called cynoFcRn
Below, each entry is listed with its recorded Kd.
// units = nM; emit number, no label

[
  {
    "binder": "Fc Fragment 10 (other, Human IgG1 Fc fragment; substitutions already in the entry) DKTHTCPPCPAPELLGGPSVFLFPPKPKDTLYITREPEVTCVVVDVSHEDPEVKFNWYVDGVEVHNAKTKPREEQYNSTYRVVSVLTVLHQDWLNGKEYKCKVSNKALPAPIEKTISKAKGQPREPQVYTLPPSRDELTKNQVSLTCLVKGFYPSDIAVEWESNGQPENNYKTTPPVLDSDGSFFLYSKLTVDKSRWQQGNVFSCSVLHEALKYHYTQKSLSLSPG",
    "assay.readout": "Kd",
    "value.unit": "nM",
    "measured": 28.6
  },
  {
    "binder": "Fc Fragment 17 (other, Human IgG1 Fc fragment; substitutions already in the entry) DKTHTCPPCPAPELLGGPSVFLFPPKPKDTLYITREPEVTCVVVDVSHEDPEVKFNWYVDGVEVHNAKTKPREEQYNSTYRVVSVLTVDHQDWLNGKEYKCKVSNKALPAPIEKTISKAKGQPREPQVYTLPPSRDELTKNQVSLTCLVKGFYPSDIAVEWESNGQPENNYKTTPPVLDSDGSFFLYSKLTVDKSRWQQGNVFSCSVLHEALKFHYTQKSLSLSPG",
    "assay.readout": "Kd",
    "value.unit": "nM",
    "measured": 62.1
  }
]

Q: What Kd value was documented for this binder, Fc Fragment 18 (other, Human IgG1 Fc fragment; substitutions already in the entry) DKTHTCPPCPAPELLGGPSVFLFPPKPKDTLYITREPEVTCVVVDVSHEDPEVKFNWYVDGVEVHNAKTKPREEQYNSTYRVVSVLTVDHQDWLNGKEYKCKVSNKALPAPIEKTISKAKGQPREPQVYTLPPSRDELTKNQVSLTCLVKGFYPSDIAVEWESNGQPENNYKTTPPVLDSDGSFFLYSKLTVDKSRWQQGNVFSCSVLHEALKYHYTQKSLSLSPG ?
Result: 51.2

Q: Next up: Fc Fragment 3 (other, Human IgG1 Fc fragment; substitutions already in the entry; also called Fc197) DKTHTCPPCPAPELLGGPSVFLFPPKPKDTLYITREPEVTCVVVDVSHEDPEVKFNWYVDGVEVHNAKTKPREEQYNSTYRVVSVLTVLHQDWLNGKEYKCKVSNKALPAPIEKTISKAKGQPREPQVYTLPPSRDELTKNQVSLTCLVKGFYPSDIAVEWESNGQPENNYKTTPPVLDSDGSFFLYSKLTVDKSRWQQGNVFSCSVMHEALKYHYTQKSLSLSPG
Result: 28.9

Q: Next up: Fc Fragment 14 (other, Human IgG1 Fc fragment; substitutions already in the entry) DKTHTCPPCPAPELLGGPSVFLFPPKPKDTLYITREPEVTCVVVDVSHEDPEVKFNWYVDGVEVHNAKTKPREEQYNSTYRVVSVLTVLHQDWLNGKEYKCKVSNKALPAPIEKTISKAKGQPREPQVYTLPPSRDELTKNQVSLTCLVKGFYPSDIAVEWESNGQPENNYKTTPPVLDSDGSFFLYSKLTVDKSRWQQGNVFSCSVLHEALRFHYTQKSLSLSPG
Result: 36.1

Q: Next up: Fc Fragment 2 (other, Human IgG1 Fc fragment; substitutions already in the entry; also called Fc195) DKTHTCPPCPAPELLGGPSVFLFPPKPKDTLYITREPEVTCVVVDVSHEDPEVKFNWYVDGVEVHNAKTKPREEQYNSTYRVVSVLTVLHQDWLNGKEYKCKVSNKALPAPIEKTISKAKGQPREPQVYTLPPSRDELTKNQVSLTCLVKGFYPSDIAVEWESNGQPENNYKTTPPVLDSDGSFFLYSKLTVDKSRWQQGNVFSCSVLHEALKFHYTQKSLSLSPG
Result: 36.2

Q: Next up: Fc Fragment 12 (other, Human IgG1 Fc fragment; substitutions already in the entry) DKTHTCPPCPAPELLGGPSVFLFPPKPKDTLYITREPEVTCVVVDVSHEDPEVKFNWYVDGVEVHNAKTKPREEQYNSTYRVVSVLTVLHQDWLNGKEYKCKVSNKALPAPIEKTISKAKGQPREPQVYTLPPSRDELTKNQVSLTCLVKGFYPSDIAVEWESNGQPENNYKTTPPVLDSDGSFFLYSKLTVDKSRWQQGNVFSCSVMHEALRYHYTQKSLSLSPG
Result: 30.1

Q: Next up: Fc Fragment 15 (other, Human IgG1 Fc fragment; substitutions already in the entry) DKTHTCPPCPAPELLGGPSVFLFPPKPKDTLYITREPEVTCVVVDVSHEDPEVKFNWYVDGVEVHNAKTKPREEQYNSTYRVVSVLTVDHQDWLNGKEYKCKVSNKALPAPIEKTISKAKGQPREPQVYTLPPSRDELTKNQVSLTCLVKGFYPSDIAVEWESNGQPENNYKTTPPVLDSDGSFFLYSKLTVDKSRWQQGNVFSCSVMHEALKFHYTQKSLSLSPG
Result: 60.8

Q: Next up: Fc Fragment 13 (other, Human IgG1 Fc fragment; substitutions already in the entry) DKTHTCPPCPAPELLGGPSVFLFPPKPKDTLYITREPEVTCVVVDVSHEDPEVKFNWYVDGVEVHNAKTKPREEQYNSTYRVVSVLTVLHQDWLNGKEYKCKVSNKALPAPIEKTISKAKGQPREPQVYTLPPSRDELTKNQVSLTCLVKGFYPSDIAVEWESNGQPENNYKTTPPVLDSDGSFFLYSKLTVDKSRWQQGNVFSCSVMHEALRFHYTQKSLSLSPG
Result: 41.7
